Data origin, for the record: paper PMC4336329

# tgt: human ether-à-go-go-related gene (hERG) potassium channel (human)
# Sequence (Q12809 whole entry, looked up): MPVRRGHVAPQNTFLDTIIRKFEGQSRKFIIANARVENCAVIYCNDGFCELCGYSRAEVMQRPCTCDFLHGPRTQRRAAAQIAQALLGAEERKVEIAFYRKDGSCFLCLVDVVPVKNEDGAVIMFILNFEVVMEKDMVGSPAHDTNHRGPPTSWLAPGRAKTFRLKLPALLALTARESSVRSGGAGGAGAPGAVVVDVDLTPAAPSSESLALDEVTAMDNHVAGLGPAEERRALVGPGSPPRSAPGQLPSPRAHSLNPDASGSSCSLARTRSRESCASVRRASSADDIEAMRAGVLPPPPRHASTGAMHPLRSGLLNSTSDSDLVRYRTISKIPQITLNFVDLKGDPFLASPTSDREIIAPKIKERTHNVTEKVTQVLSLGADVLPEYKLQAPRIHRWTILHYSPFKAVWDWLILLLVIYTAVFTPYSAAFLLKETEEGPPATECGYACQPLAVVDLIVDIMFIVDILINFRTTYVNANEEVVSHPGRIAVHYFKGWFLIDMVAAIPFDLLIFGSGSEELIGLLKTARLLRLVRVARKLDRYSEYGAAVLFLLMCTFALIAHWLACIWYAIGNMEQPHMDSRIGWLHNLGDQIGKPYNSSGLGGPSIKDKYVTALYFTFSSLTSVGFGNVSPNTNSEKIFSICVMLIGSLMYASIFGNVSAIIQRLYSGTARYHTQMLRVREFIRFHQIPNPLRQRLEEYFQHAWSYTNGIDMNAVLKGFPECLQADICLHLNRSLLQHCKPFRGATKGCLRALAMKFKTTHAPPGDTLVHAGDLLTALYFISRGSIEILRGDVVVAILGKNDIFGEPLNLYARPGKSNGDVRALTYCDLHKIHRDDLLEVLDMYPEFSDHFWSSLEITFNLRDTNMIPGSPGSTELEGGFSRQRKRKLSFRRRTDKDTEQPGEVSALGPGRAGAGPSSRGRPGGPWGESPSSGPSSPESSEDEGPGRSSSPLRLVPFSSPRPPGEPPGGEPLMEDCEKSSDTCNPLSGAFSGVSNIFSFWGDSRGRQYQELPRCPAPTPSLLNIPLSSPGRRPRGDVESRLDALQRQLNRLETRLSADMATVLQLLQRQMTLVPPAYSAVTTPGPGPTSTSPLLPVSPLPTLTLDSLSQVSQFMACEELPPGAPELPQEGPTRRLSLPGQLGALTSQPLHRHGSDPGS
# experiment: primary screen, population patch clamp on CHO cells stably expressing hERG; higher = less effect of the substance;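 further: peak tail current of the secondary pulse compared with the same well before compound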
The whole screen tested about 310,000 compounds, of which about 14,000 (4.5%) showed an effect of 50% or more. Effects have a minus sign here. For the sample, strong results were picked, then their nearest neighbours and some compounds at random.
Hi there, I'd appreciate the recorded hERG current change (%, negative = inhibition) at 10uM for every entry that follows.
The answer is to be given in %; state only the numeric part.

So what does the record say about hERG current change (%, negative = inhibition) at 10uM for `O=C(c1nc2ccccn2c1CNCCCn1ncc2ccccc21)N1CCCC1` ?
-37.7

Request the reported hERG current change (%, negative = inhibition) at 10uM associated with `O=C(CN1CCC(Cc2ccccc2)CC1)N1CCc2ccccc2C1`
-69.3

I am curious: what hERG current change (%, negative = inhibition) at 10uM value has been reported for `Cl.Clc1cccc(Cl)c1CNC1CCCC1` ?
13.5

Look at this compound and give its reported hERG current change (%, negative = inhibition) at 10uM. `CCCCn1c(CNC(C)=O)nc2ccccc21`
3.5

# input compound: `O=C(CN1CCC(n2nnc3cc(F)ccc32)CC1)N1CCc2ccccc2C1` ; wanted: its hERG current change (%, negative = inhibition) at 10uM
-58.1

Give its hERG current change (%, negative = inhibition) at 10uM value. Item: `CCOc1ccc2[nH]c(C)c(CN3CCCCC3)c(=O)c2c1`
-13.1

Reported hERG current change (%, negative = inhibition) at 10uM for `CC1(C)Cc2c(C#N)c(N3CCOCC3)nc(-c3ccccc3)c2CO1` : what is it?
-12.1

Entry under review: `O=C(CN1CCC(n2nnc3cc(C(F)(F)F)ccc32)CC1)N1CCc2ccccc21` . Reported hERG current change (%, negative = inhibition) at 10uM?
-19.9

Item under review: `CN(Cc1ccccc1)C(=O)c1nc2ccccn2c1CNCCCOc1cccnc1` . Reported hERG current change (%, negative = inhibition) at 10uM?
-52.3

Field request: hERG current change (%, negative = inhibition) at 10uM | item: `O=C(CN1CCC(n2nnc3cc(F)ccc32)CC1)NNC(=O)c1ccccc1`
-11.9

Can you look up the measured hERG current change (%, negative = inhibition) at 10uM of `CCCCn1c(CN2CCN(C)CC2)nc2ccccc21` for me?
-67.1

Given `O=C(CN1CCC(n2nnc3cc(F)ccc32)CC1)NCCc1nc2ccccc2[nH]1` , state its recorded hERG current change (%, negative = inhibition) at 10uM.
-31.6

// returns reported hERG current change (%, negative = inhibition) at 10uM for input `Cc1ccccc1Nc1c(-c2ccc(N3CCOCC3)cc2)nc2cnccn12`
-1.1

What measured hERG current change (%, negative = inhibition) at 10uM goes with `CCOC(=O)N1CCC(NS(=O)(=O)c2ccc3c(c2)CCN3C(C)=O)CC1` ?
-0.517

Sample `CCc1nc(C)ccc1OCC(=O)N(CC)CC.O.O=C(O)C(=O)O` — what was its hERG current change (%, negative = inhibition) at 10uM?
-30.9

Bench note: what hERG current change (%, negative = inhibition) at 10uM did `CC1(C)Cc2c(C#N)c(NCCc3ccccc3)nc(-c3ccco3)c2CO1` show?
12.5

Dear colleague, I am looking for the recorded hERG current change (%, negative = inhibition) at 10uM of the following compound: `CCN(CC)CCNc1nc(-c2ccco2)c2c(c1C#N)CC(C)(C)OC2`
-62.6

Which hERG current change (%, negative = inhibition) at 10uM is listed for `CCCCn1c(N)nc2ccccc21.Cl` ?
-8.47

Need hERG current change (%, negative = inhibition) at 10uM, item `CC1(C)Cc2c(C#N)c(NCCN3CCOCC3)nc(-c3ccco3)c2CO1`
-6.23

Consider the compound shown here: `O=C(CN1CCC(N2CCCCC2)CC1)N1CCCc2ccccc21.O=C(O)C(=O)O` What is its recorded hERG current change (%, negative = inhibition) at 10uM?
20.7

Which hERG current change (%, negative = inhibition) at 10uM is reported for this compound? `CCCn1c2ccccc2c2nc3ccccc3nc21`
13
